# System: PC-3 prostate
# method: NCI tumour cell line growth inhibition, 48 h; in the data active = GI50 below about 0.43 µM; inactive = the rest
Classes used: active, inactive

compound_structure_string=C=C(C)[C@@H]1CC[C@]2(C(=O)O)CC[C@]3(C)[C@H](CC[C@@H]4[C@@]5(C)C[C@@H](CC#Cc6ccc(Br)cc6)C(=O)C(C)(C)[C@@H]5CC[C@]43C)[C@@H]12 assigned_label=inactive
compound_structure_string=O=C(Nc1cccnc1)c1cccc([N+](=O)[O-])c1 assigned_label=inactive
compound_structure_string=COc1cc2c3c(n(CCCCNC(=O)OCC4c5ccccc5-c5ccccc54)c(=O)c2cc1OC)-c1cc2c(cc1C3=O)OCO2 assigned_label=inactive
compound_structure_string=CO/N=C(\COc1ccc2c(c1)oc(=O)c1cc(OC)ccc12)c1ccc(F)cc1 assigned_label=inactive
compound_structure_string=COc1cc2c(cc1OCCCCCn1c(-c3ccco3)nc3ccccc31)N=C[C@@H]1CCCN1C2=O assigned_label=active
compound_structure_string=COc1ccc(/C(=N\O)c2cc(OC)c(OC)c(OC)c2)c(OC)c1N assigned_label=inactive
compound_structure_string=O=c1[nH]ccc2nc(-c3ccc(CN4CCC(c5nc(-c6ccccn6)n[nH]5)CC4)cc3)c(-c3ccccc3)cc12 assigned_label=active
compound_structure_string=Cc1ccc(/C=C/C(=O)c2ccc(N)cc2)c(C)c1 assigned_label=inactive
